# measured_target: Apoptosis regulator Bcl-2 (Homo sapiens)
# Sequence (P10415 whole entry): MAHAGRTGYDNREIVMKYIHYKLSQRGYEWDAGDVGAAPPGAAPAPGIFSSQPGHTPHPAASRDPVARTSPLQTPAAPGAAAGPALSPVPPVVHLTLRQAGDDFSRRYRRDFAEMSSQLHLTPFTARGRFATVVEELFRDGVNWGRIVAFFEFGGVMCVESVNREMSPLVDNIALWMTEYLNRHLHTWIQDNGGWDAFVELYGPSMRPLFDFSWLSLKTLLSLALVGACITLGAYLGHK
# method_description: Displacement of Flu-Bak peptide from recombinant antiapoptotic Bcl2 protein by fluorescence polarization assay
Ki listing for selected compounds.
Numeric only. Scale: µM

Illustrative cases are given below, each with its answer.
compound	unit_abbreviation	result
C[C@@H](C(=O)N1CCOCC1)N1C(=O)/C(=C/c2ccc(Br)cc2)SC1=S	µM	70
CC(C)C[C@@H](C(=O)O)N1C(=O)/C(=C(\c2ccccc2)c2ccc(-c3ccccc3)cc2)SC1=S	µM	1.95
CSCC[C@@H](C(=O)O)N1C(=O)/C(=C/c2ccc(Br)cc2)SC1=S	µM	69.6
CC(C)C(C(=O)O)N1C(=O)/C(=C\c2ccc(Br)cc2)SC1=S (stereo not given)	µM	43.4

Now look at this entry.
What reported Ki corresponds to "O=C(O)[C@H](Cc1c[nH]c2ccccc12)N1C(=O)/C(=C/c2ccc(Br)cc2)SC1=S" on Apoptosis regulator Bcl-2 (Homo sapiens)?
2.85
